Target: p53 Y220C (Homo sapiens, UniProt P04637, Y220C)
Assay: Luciferase Reporter Assay (Luc), p53 response element, NClH1299 cells with inducible p53 Y220C
Assay type: cell-based
Settings: luciferase reporter, NClH1299 inducible p53 Y220C, 6 hour; 10 uM tool compound as positive control
Entries annotated with measured Emax

Below are worked cases with known answers.
COc1cc(P(C)(C)=O)ccc1NCC#Cc1cc2c(N[C@@H]3CCN(C)C[C@@H]3F)nccn2c1SC(F)(F)F: 80 to 90%
COc1cc(C(=O)NC2CC2)ccc1NCC#Cc1nc2c(N[C@@H]3CCN(C)C[C@@H]3F)cccn2c1CC(F)(F)F: 70 to 80%
CCc1c(C#CCNc2ccc(S(C)(=O)=O)cc2OC)nc2c(NC3CCN(C)CC3)cccn12: < 70%

Specify reported Emax for the compound shown: COc1cc(S(=O)(=O)C(C)C)ccc1NCC#Cc1nc2c(N[C@@H]3CCN(C)C[C@@H]3F)cccn2c1SC(F)(F)F 80 to 90%
